Tested on: NCI-H23
measurementProtocol: NCI tumour cell line growth inhibition, 48 h
Active and inactive are the calls of the source. No stated cut-off is given here; in the data, active = GI50 up to about 1.1 µM and inactive = higher.
experimentalReadout: GI50

Asked: For the compound CC(C)(CO)NC(=O)Nc1c(C(F)(F)F)cc(-c2ccccc2)[nH]c1=O , what GI50 is on record?
Given back: > 100 µM (inactive)

Asked: Now the same for Cc1ccc(/N=C2/C(c3ccccc3)=C(SC3=C(c4ccccc4)/C(=N/c4ccc(C)cc4)c4ccccc43)c3ccccc32)cc1
Given back: 14 µM (inactive)

Asked: Now the same for CC(=O)c1ccc(Oc2ccc(/C(C)=N\N=C(N)N)cc2)cc1
Given back: 3.75 µM (inactive)

Asked: Now the same for Cc1ccc([N+](=O)[O-])cc1S(=O)(=O)Nc1ccc(C2=NOC(c3ccccc3O)C2)cc1 (stereo not given)
Given back: 10.4 µM (inactive)

Asked: Now the same for NC(=O)c1c2c(n3ccccc13)C(=O)c1ccccc1C2=O
Given back: 11.9 µM (inactive)

Asked: Now the same for COc1ccc(CCN(C)C2CCC(C#N)(c3ccc(OC)c(OC)c3)CC2)cc1OC (stereo not given)
Given back: > 100 µM (inactive)

Asked: Now the same for Brc1ccc(-c2nnc(-c3nn(-c4ccccc4)c4nc5ccccc5nc34)o2)cc1
Given back: > 100 µM (inactive)

Asked: Now the same for CC1(C)CC2(C)ON=C(c3ccccc3)N2c2ccccc2N1 (stereo not given)
Given back: 25 µM (inactive)

Asked: Now the same for CCOC(=O)C1(C(=O)OCC)OC(C)=NC1(C(=O)OC)C(=O)OC
Given back: > 100 µM (inactive)

Asked: Now the same for CC1=NCC[N+]1(CCc1ccccc1)Cc1ccccc1 (stereo not given)
Given back: 19.8 µM (inactive)
